# STUDY_SYSTEM: Neu5Ac(a2-3)Gal(b1-3)GlcNAc(b1-2)Man
# TEST_DETAILS: glycan array binding signal (z-score within array); higher = stronger binding
# TEST_CONTEXT: glycan notation: IUPAC condensed, linker removed
The entries come from a sample that favours the strongest signals as a whole.
Would you mind telling me the reported glycan array binding signal (z-score) of each entry?
Please reply with the number alone, leaving off any unit.

Problem: Would you kindly share the measured glycan array binding signal (z-score) for OrysaEULS2 (Oryza sativa) (protein) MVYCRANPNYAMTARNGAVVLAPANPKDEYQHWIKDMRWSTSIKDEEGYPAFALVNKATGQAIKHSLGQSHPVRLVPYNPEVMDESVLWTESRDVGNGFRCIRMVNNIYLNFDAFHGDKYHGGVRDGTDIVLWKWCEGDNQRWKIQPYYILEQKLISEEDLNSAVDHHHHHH ?
Solution: -0.31

Problem: // query glycan array binding signal (z-score) value for entry NPA (Narcissus pseudonarcissus), C0HM45 (protein) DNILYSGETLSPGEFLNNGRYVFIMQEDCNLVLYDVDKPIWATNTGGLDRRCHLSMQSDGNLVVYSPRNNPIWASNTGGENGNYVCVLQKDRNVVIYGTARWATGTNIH
Solution: -0.122

Problem: Request the reported glycan array binding signal (z-score) associated with SynCAM (Mus musculus) (protein) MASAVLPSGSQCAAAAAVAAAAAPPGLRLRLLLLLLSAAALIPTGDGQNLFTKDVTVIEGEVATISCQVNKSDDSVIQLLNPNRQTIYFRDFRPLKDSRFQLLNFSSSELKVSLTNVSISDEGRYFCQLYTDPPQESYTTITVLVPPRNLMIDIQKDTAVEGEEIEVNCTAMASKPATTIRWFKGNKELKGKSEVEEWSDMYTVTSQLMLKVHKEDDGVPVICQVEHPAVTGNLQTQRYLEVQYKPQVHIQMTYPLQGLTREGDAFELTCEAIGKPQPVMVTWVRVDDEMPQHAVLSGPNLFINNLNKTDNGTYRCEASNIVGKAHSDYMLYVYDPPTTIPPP
Solution: -0.517

Problem: What value of glycan array binding signal (z-score) has been reported for the following binder? LecRKVI.2 (protein) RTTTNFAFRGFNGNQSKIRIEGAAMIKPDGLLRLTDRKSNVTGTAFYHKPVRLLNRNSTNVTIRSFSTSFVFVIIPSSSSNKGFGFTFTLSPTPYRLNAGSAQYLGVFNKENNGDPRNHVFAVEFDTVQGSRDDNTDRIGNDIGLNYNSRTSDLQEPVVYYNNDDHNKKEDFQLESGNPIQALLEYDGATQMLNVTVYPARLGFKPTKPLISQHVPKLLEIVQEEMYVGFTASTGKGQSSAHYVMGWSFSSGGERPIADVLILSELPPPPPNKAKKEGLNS
Solution: -0.335

Problem: Which glycan array binding signal (z-score) value belongs to EUL D1A second (Oryza sativa) (protein) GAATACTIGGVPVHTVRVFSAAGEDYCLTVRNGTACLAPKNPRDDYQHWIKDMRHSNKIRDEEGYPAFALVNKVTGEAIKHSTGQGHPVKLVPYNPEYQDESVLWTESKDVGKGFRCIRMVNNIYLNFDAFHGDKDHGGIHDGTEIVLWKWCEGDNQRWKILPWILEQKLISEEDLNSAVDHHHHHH ?
Solution: 3.06

Problem: Entry AT5G01260(PC)(40) (Arabidopsis thaliana), Q9LFB0 (protein) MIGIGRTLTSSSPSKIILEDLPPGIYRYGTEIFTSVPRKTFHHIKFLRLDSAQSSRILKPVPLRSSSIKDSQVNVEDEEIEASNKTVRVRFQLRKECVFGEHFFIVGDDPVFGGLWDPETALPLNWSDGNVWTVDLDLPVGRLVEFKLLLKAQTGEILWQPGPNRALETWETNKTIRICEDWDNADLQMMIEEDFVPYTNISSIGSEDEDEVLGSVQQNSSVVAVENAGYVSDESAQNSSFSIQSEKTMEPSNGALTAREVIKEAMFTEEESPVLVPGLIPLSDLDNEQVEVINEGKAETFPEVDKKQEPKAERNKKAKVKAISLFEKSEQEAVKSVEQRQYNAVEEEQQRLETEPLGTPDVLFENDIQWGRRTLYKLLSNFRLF : reported glycan array binding signal (z-score) = ?
Solution: -0.011

The measured values listed here are drawn from the supplement of paper PMC8728848.
